Where these numbers come from: the supplement of paper PMC10307832

The following compounds are listed with their measured relative viability values.
# System: SK-MES-1
# MEASUREMENT_DESCRIPTION: relative viability (nuclei count vs DMSO), 5 days (fraction); higher = more cells survive
# CONDITION_INFO: first compound 0.06325 µM
OBSERVED_PROPERTY: relative viability

COMPOUND | MEASURED_TARGET | OBSERVED_PROPERTY | OBSERVED_MEASUREMENT
CCNC(=O)c1noc(-c2cc(C(C)C)c(O)cc2O)c1-c1ccc(CN2CCOCC2)cc1 [Luminespib] + Nc1ncn([C@H]2C[C@H](O)[C@@H](CO)O2)c(=O)n1 [Decitabine] (partner 2 µM) | SK-MES-1 | relative viability | 0.146
CCNC(=O)c1noc(-c2cc(C(C)C)c(O)cc2O)c1-c1ccc(CN2CCOCC2)cc1 [Luminespib] + Cc1nc(Nc2ncc(C(=O)Nc3c(C)cccc3Cl)s2)cc(N2CCN(CCO)CC2)n1 [Dasatinib] (partner 0.075 µM) | SK-MES-1 | relative viability | 0.0911
CCNC(=O)c1noc(-c2cc(C(C)C)c(O)cc2O)c1-c1ccc(CN2CCOCC2)cc1 [Luminespib] + C[C@@H](Oc1cc(-c2cnn(C3CCNCC3)c2)cnc1N)c1c(Cl)ccc(F)c1Cl [Crizotinib] (partner 1 µM) | SK-MES-1 | relative viability | 0.758
CCNC(=O)c1noc(-c2cc(C(C)C)c(O)cc2O)c1-c1ccc(CN2CCOCC2)cc1 [Luminespib] + Cc1cc(Nc2cc(N3CCN(C)CC3)nc(Sc3ccc(NC(=O)C4CC4)cc3)n2)n[nH]1 [Tozasertib] (partner 0.1 µM) | SK-MES-1 | relative viability | 0.144
